Hey, just so you know, these numbers are from patent US20070128217A1.

Test system: antibodies in sera from SARS patients (sera 1a, 1b, 2, 6, 37, 62, London, SARS-yellow, SARS-green)
Type: binding, human
Set-up: unit not given here
reported.metric: Binding of serum 37 to linear peptides of protein N of SARS-CoV Urbani

> print(dat)
    sequence.string  result.value
 1  RQLQNSMSGASADST           0.7
 2  NTPKDHIGTRNPNNN           0.8
 3  LSPRWYFYYLGTGPE           1.0
 4  YYLGTGPEASLPYGA           0.7
 5  DFSRQLQNSMSGASA           0.7
 6  FPRGQGVPINTNSGP           0.7
 7  GTWLTYHGAIKLDDK           0.7
 8  SRQLQNSMSGASADS           0.8
 9  LQNSMSGASADSTQA           0.6
10  QNGGRNGARPKQRRP           0.7
11  NSGPDDQIGYYRRAT           0.7
12  TGPEASLPYGANKEG           0.7
13  RGQGVPINTNSGPDD           0.3
14  KELSPRWYFYYLGTG           0.4
